Assignment: determine reported Bliss excess for the given molecules.
Tested on: SK-PN-DW (Other Solid Carcinomas);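 further: after 72 h of two-drug dosing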
Test Summary: Bliss excess, mean over the matrix (fraction); higher = more synergy
No unit in the answer, please; the number alone is enough.

Field request: Bliss excess | item: C[C@@H]1COCCN1c1cc(C2([S@](C)(=N)=O)CC2)nc(-c2ccnc3[nH]ccc23)n1 [AZD6738] + O=C(c1cc(Cc2n[nH]c(=O)c3ccccc23)ccc1F)N1CCN(C(=O)C2CC2)CC1 [Olaparib] (first compound max 10 µM, 7x7, partner max 10 µM)
0.008

Entry to check: COc1cccc(OCCCN)c1-c1cc(Nc2cnc(C#N)cn2)n[nH]1 [Prexasertib] + O=C(c1cc(Cc2n[nH]c(=O)c3ccccc23)ccc1F)N1CCN(C(=O)C2CC2)CC1 [Olaparib] (first compound max 1 µM, 7x7, partner max 10 µM)
-0.0689

Entry to check: Cc1c2c(nn1C)CSCc1cc(n(C)n1)CSc1cc(c3ccccc3c1)OCCCc1c(C(=O)O)n(C)c3c-2c(Cl)ccc13 [AZD5991] + C=CCn1c(=O)c2cnc(Nc3ccc(N4CCN(C)CC4)cc3)nc2n1-c1cccc(C(C)(C)O)n1 [AZD1775] (first compound max 1 µM, partner max 1 µM)
-0.0212

Entry to check: C[C@@H](Oc1cc(-c2cnn(C3CCNCC3)c2)cnc1N)c1c(Cl)ccc(F)c1Cl [Crizotinib] + Cn1cnc2c(F)c(Nc3ccc(Br)cc3Cl)c(C(=O)NOCCO)cc21 [Selumetinib] (first compound max 10 µM, 7x7, partner max 10 µM)
-0.0705
